# Test system: CCRF-CEM leukemia
# test protocol: NCI-60 one-dose screen, 48 h
# run parameters: 10 µM unless noted
Compounds without any hit were thinned out: in the full panel of roughly 83,000, 20% have a hit. Activity calls are given as the source filed them. Rule for the calls: active = growth percent below 10; inactive = the rest.
Would you mind answering with one of these outcomes? active, inactive

Use the examples below as a reference point.
1. CCCCC(=O)Nc1c(C(=O)Nc2ccccc2)sc2nc3c(cc12)C(OC(=O)CCCC)CCC3 (stereo not given) | inactive
2. O=C(CN1N=C(c2ccc(F)cc2)CCC1=O)Nc1nccs1 | inactive

INPUT: Dear colleague, could you share the recorded outcome for `Nc1c(C(=O)Nc2ccccc2)sc2nc3c(cc12)CN(C(=O)OCc1ccccc1)CC3` when you have a moment?
OUTPUT: inactive
